The measured values listed here are drawn from a melting point compilation (Tetko et al.).

Measured melting point accompanies every entry in the list below.

>>> measured_value("Cc1ccccc1-c1nnc(S)o1")
"188 to 190 °C"
>>> measured_value("CC(=O)Cn1c(CCl)nc2ccccc2c1=O")
"167 to 169 °C"
>>> measured_value("CC(=O)NC1(C(N)=NO)CCN(C)CC1")
"202 to 204 °C"
>>> measured_value("CC(C)CCOc1ccc(C2(C)NC(=O)NC2=O)cc1 (configuration not stated)")
"110 to 112 °C"
>>> measured_value("O=C(O)CCCCNC(=O)OCc1ccccc1")
"104 to 106 °C"

QUERY: // returns reported melting point for input CC1(c2ccccc2)CC(=O)NC1=O (configuration not stated)
RESULT: 79 to 81 °C

QUERY: melting point lookup needed for Cn1c(S)nnc1-c1ccc(Cl)cc1 , thanks.
RESULT: 113 to 115 °C

QUERY: Need melting point of Cc1ccc(-n2ccnc2)c(C(=O)O)c1 , thanks.
RESULT: 259 to 261 °C

QUERY: Name the reported melting point value associated with the compound CCOC(=O)c1noc(C)n1
RESULT: 32 to 34 °C

QUERY: Which melting point reading was recorded for the compound CCOC(=O)/C(C#N)=C\Nc1cc(Cl)ccc1F ?
RESULT: 147 to 149 °C

QUERY: Field request: melting point | item: Cn1ccnc1C(O)(CCN)C(F)(F)F (configuration not stated)
RESULT: 115 to 117 °C

QUERY: Give its melting point value. Item: Cn1nc(C(=O)O)cc1-c1ccc2c(c1)OCO2
RESULT: 214 to 216 °C
